target: Dual specificity mitogen-activated protein kinase kinase 7 (Homo sapiens) (UniProt O14733); details: at 10 µM
Sequence (O14733 whole entry): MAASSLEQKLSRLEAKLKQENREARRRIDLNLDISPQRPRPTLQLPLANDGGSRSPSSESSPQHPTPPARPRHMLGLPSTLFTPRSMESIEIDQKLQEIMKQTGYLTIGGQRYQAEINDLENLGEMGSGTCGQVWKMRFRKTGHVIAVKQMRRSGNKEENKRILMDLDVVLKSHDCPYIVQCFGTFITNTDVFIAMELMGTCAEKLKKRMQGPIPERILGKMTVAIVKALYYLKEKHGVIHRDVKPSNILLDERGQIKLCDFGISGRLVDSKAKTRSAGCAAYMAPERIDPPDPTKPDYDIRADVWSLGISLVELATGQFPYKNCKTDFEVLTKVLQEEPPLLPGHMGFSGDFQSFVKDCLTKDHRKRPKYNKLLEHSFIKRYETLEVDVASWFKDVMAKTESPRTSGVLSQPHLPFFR
parameter: residual activity (%)

INSERT INTO results (structure_string, target_entity, parameter, value_measured) VALUES
  ('O=C1Nc2ccc3ncsc3c2/C1=C/c1c[nH]cn1', 'Dual specificity mitogen-activated protein kinase kinase 7 (Homo sapiens) (UniProt O14733)', 'residual activity', 12),
  ('O=C1NC(=O)c2c1c1c3ccccc3n3c1c1c2c2ccccc2n1C1CCC3O1', 'Dual specificity mitogen-activated protein kinase kinase 7 (Homo sapiens) (UniProt O14733)', 'residual activity', 98),
  ('CC(C)(C)c1cc(C=C(C#N)C#N)cc(Br)c1O', 'Dual specificity mitogen-activated protein kinase kinase 7 (Homo sapiens) (UniProt O14733)', 'residual activity', 102);

====

target: Serine/threonine-protein kinase 10 (Homo sapiens) (UniProt O94804); conditions: at 10 µM
Sequence (O94804 whole entry, looked up): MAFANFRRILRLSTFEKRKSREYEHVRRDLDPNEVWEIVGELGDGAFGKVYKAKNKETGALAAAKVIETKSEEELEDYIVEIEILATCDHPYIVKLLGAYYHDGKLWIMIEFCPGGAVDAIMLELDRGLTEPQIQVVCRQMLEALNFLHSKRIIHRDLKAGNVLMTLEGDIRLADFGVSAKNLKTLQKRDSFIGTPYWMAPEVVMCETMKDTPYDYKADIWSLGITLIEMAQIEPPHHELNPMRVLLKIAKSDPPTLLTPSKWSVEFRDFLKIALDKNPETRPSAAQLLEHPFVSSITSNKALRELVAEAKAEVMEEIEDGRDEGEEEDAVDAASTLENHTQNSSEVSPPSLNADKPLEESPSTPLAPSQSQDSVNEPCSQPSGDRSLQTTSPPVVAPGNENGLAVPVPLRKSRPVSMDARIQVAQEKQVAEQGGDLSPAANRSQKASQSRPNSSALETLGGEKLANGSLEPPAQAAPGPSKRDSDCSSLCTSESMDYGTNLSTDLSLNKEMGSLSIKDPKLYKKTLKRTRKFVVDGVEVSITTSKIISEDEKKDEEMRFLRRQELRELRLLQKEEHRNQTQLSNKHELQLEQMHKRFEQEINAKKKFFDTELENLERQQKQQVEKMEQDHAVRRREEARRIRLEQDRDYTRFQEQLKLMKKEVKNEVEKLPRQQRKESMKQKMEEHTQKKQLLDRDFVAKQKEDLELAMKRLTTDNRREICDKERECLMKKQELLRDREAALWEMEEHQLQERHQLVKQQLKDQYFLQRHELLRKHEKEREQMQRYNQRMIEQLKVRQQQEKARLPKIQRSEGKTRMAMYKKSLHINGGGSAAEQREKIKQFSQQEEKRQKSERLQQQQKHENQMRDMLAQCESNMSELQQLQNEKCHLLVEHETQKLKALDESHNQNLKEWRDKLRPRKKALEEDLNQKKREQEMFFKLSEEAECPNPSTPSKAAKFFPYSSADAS
parameter: residual activity (%)

INSERT INTO measurements (compound, target_entity, reading_unit, value_measured) VALUES
  ('CCc1nc(-c2ccc(OC)cc2)[nH]c1-c1ccncc1', 'Serine/threonine-protein kinase 10 (Homo sapiens) (UniProt O94804)', '%', 48),
  ('CC(C)(C)c1cc(C=C(C#N)C#N)cc(Br)c1O', 'Serine/threonine-protein kinase 10 (Homo sapiens) (UniProt O94804)', '%', 68),
  ('c1cc(-c2cnn3cc(-c4ccc(OCCN5CCCCC5)cc4)cnc23)ccn1', 'Serine/threonine-protein kinase 10 (Homo sapiens) (UniProt O94804)', '%', 19),
  ('COC(=O)[C@@]1(O)C[C@H]2O[C@]1(C)n1c3ccccc3c3c4c(c5c6ccccc6n2c5c31)C(=O)NC4', 'Serine/threonine-protein kinase 10 (Homo sapiens) (UniProt O94804)', '%', 1),
  ('C[S+]([O-])c1ccc(-c2nc(-c3ccc(F)cc3)c(-c3ccncc3)[nH]2)cc1 (stereo not drawn)', 'Serine/threonine-protein kinase 10 (Homo sapiens) (UniProt O94804)', '%', 79),
  ('O=C1Nc2ccc3ncsc3c2/C1=C/c1c[nH]cn1', 'Serine/threonine-protein kinase 10 (Homo sapiens) (UniProt O94804)', '%', 7),
  ('CCn1cnc2c(Nc3cccc(Cl)c3)nc(N[C@@H]3CCCC[C@@H]3N)nc21', 'Serine/threonine-protein kinase 10 (Homo sapiens) (UniProt O94804)', '%', 15),
  ('COc1cc2ncnc(Nc3ccc(OCc4ccccc4)cc3)c2cc1OC', 'Serine/threonine-protein kinase 10 (Homo sapiens) (UniProt O94804)', '%', 43);

====

target: Homeodomain-interacting protein kinase 1 (Homo sapiens); details: at 10 µM
Description: Millipore: Percentage of residual kinase activity of HIPK1 at 10uM relative to control. Control inhibitor: Phosphoric acid* at 0.3uM. Buffer: 8 mM MOPS pH 7.0, 0.2 mM EDTA
Note to self: use T only for residual activity readings below 80%; a reading exactly at 80% still gets F.

INSERT INTO results (compound, group) VALUES
  ('COc1ccc2c(c1)/C(=C/c1cnc[nH]1)C(=O)N2', 'T'),
  ('COc1cc(OC)c(/C=C2\C(=O)Nc3ccccc32)c(OC)c1', 'F'),
  ('CC(C)(C)c1cc(C=C(C#N)C#N)cc(Br)c1O', 'F'),
  ('CC(C)[C@H](CO)Nc1nc(Nc2cccc(Cl)c2)c2ncn(C(C)C)c2n1', 'T'),
  ('C[S+]([O-])c1ccc(-c2nc(-c3ccc(F)cc3)c(-c3ccncc3)[nH]2)cc1 (stereo unspecified)', 'F'),
  ('O=C1Nc2ccc3ncsc3c2/C1=C/c1c[nH]cn1', 'T'),
  ('O=[N+]([O-])/C=C/c1ccc2c(c1)OCO2', 'F'),
  ('O=c1[nH]c2ccccc2n1C1CCN(Cc2ccc(-c3nc4cc5[nH]cnc5cc4nc3-c3ccccc3)cc2)CC1', 'F'),
  ('c1cc(-c2cnn3cc(-c4ccc(OCCN5CCCCC5)cc4)cnc23)ccn1', 'T'),
  ('COC(=O)[C@@]1(O)C[C@H]2O[C@]1(C)n1c3ccccc3c3c4c(c5c6ccccc6n2c5c31)C(=O)NC4', 'T');

====

molecular target: Serine/threonine-protein kinase STK11 (Homo sapiens) (UniProt Q15831); settings: at 1 µM
Sequence (Q15831 whole entry): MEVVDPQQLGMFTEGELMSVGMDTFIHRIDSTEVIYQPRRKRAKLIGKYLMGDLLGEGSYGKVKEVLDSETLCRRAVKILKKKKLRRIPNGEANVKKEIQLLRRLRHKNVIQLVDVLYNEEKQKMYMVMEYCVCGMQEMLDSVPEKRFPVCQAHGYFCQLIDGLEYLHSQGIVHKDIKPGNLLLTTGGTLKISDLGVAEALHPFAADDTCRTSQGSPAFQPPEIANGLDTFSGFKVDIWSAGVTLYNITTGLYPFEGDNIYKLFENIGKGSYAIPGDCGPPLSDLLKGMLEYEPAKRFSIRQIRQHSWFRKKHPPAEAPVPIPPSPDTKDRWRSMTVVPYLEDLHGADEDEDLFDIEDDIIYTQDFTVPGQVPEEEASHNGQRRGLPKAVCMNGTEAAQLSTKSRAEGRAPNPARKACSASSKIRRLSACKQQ
parameter: residual activity

INSERT INTO assay_data (structure_string, parameter, value_measured) VALUES
  ('COC(=O)[C@@]1(O)C[C@H]2O[C@]1(C)n1c3ccccc3c3c4c(c5c6ccccc6n2c5c31)C(=O)NC4', 'residual activity', '97%'),
  ('CC(C)[C@H](CO)Nc1nc(Nc2cccc(Cl)c2)c2ncn(C(C)C)c2n1', 'residual activity', '99%'),
  ('COc1cc2ncnc(Nc3ccc(OCc4ccccc4)cc3)c2cc1OC', 'residual activity', '104%'),
  ('O=[N+]([O-])/C=C/c1ccc2c(c1)OCO2', 'residual activity', '105%');

====

target: Death-associated protein kinase 1 (Homo sapiens) (UniProt P53355); details: at 10 µM
Sequence (P53355 whole entry, looked up): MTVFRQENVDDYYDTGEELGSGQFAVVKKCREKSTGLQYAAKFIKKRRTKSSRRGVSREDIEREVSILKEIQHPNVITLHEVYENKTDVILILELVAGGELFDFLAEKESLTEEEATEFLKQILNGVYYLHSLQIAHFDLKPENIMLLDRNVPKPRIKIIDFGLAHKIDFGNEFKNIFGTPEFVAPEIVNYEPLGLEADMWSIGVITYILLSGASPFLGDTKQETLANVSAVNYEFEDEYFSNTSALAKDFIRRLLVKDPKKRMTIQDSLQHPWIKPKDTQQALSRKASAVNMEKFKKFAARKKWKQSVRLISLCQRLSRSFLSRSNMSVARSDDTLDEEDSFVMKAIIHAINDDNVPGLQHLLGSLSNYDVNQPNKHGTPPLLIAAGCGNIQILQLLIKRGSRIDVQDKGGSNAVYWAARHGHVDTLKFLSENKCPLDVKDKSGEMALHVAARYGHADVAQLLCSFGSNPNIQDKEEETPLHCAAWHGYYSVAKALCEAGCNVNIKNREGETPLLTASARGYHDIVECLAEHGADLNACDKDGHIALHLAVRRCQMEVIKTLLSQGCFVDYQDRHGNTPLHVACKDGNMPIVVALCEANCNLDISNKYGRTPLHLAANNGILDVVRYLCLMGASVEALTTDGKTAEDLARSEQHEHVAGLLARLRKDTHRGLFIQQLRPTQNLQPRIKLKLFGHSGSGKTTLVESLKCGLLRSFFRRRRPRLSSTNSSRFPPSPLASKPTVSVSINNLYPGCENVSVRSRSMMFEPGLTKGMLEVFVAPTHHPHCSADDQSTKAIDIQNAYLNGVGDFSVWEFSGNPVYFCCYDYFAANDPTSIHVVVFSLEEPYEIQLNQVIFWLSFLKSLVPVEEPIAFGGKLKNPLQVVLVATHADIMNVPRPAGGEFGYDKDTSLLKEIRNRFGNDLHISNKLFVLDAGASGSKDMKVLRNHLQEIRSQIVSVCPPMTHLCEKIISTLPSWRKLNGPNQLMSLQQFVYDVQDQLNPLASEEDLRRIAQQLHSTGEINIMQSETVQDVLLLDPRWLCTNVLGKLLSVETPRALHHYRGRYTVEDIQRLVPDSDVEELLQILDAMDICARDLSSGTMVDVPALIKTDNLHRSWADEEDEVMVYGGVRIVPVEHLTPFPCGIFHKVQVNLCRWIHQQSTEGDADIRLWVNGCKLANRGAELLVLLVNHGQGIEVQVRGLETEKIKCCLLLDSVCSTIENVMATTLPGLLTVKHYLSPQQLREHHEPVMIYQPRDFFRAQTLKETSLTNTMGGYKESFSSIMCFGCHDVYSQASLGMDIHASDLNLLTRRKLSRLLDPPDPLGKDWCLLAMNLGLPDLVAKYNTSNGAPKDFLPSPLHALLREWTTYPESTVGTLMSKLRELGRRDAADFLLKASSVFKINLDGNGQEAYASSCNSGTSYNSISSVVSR
parameter: residual activity (%)

INSERT INTO assay_data (molecule, parameter, value_measured) VALUES
  ('COC(=O)[C@@]1(O)C[C@H]2O[C@]1(C)n1c3ccccc3c3c4c(c5c6ccccc6n2c5c31)C(=O)NC4', 'residual activity', 10),
  ('COc1cc(OC)c(/C=C2\C(=O)Nc3ccccc32)c(OC)c1', 'residual activity', 81),
  ('O=[N+]([O-])/C=C/c1ccc2c(c1)OCO2', 'residual activity', 90),
  ('c1cc(-c2cnn3cc(-c4ccc(OCCN5CCCCC5)cc4)cnc23)ccn1', 'residual activity', 84),
  ('COc1cc2ncnc(Nc3ccc(OCc4ccccc4)cc3)c2cc1OC', 'residual activity', 100),
  ('N/C(=N\[N+](=O)[O-])N/N=C\c1ccc(-c2cccc([N+](=O)[O-])c2)o1', 'residual activity', 89),
  ('O=c1[nH]c2ccccc2n1C1CCN(Cc2ccc(-c3nc4cc5[nH]cnc5cc4nc3-c3ccccc3)cc2)CC1', 'residual activity', 95),
  ('O=C1NC(=O)c2c1c1c3ccccc3n3c1c1c2c2ccccc2n1C1CCC3O1', 'residual activity', 60),
  ('C[S+]([O-])c1ccc(-c2nc(-c3ccc(F)cc3)c(-c3ccncc3)[nH]2)cc1 (stereo unspecified)', 'residual activity', 84),
  ('COc1ccc2c(c[n+](C)c3c4cc5c(cc4ccc23)OCO5)c1OC', 'residual activity', 71),
  ('COc1ccc2c(c1)/C(=C/c1cnc[nH]1)C(=O)N2', 'residual activity', 97);

====

molecular target: Tyrosine-protein kinase SYK (Homo sapiens) (UniProt P43405); conditions: at 1 µM
parameter: residual activity (%)

INSERT INTO measurements (compound, parameter, value_measured) VALUES
  ('O=c1[nH]c2ccccc2n1C1CCN(Cc2ccc(-c3nc4cc5[nH]cnc5cc4nc3-c3ccccc3)cc2)CC1', 'residual activity', 125),
  ('O=[N+]([O-])/C=C/c1ccc2c(c1)OCO2', 'residual activity', 123),
  ('CCn1cnc2c(Nc3cccc(Cl)c3)nc(N[C@@H]3CCCC[C@@H]3N)nc21', 'residual activity', 99),
  ('CCc1nc(-c2ccc(OC)cc2)[nH]c1-c1ccncc1', 'residual activity', 113),
  ('COC(=O)[C@@]1(O)C[C@H]2O[C@]1(C)n1c3ccccc3c3c4c(c5c6ccccc6n2c5c31)C(=O)NC4', 'residual activity', 1),
  ('COc1cc2ncnc(Nc3ccc(OCc4ccccc4)cc3)c2cc1OC', 'residual activity', 116),
  ('C[S+]([O-])c1ccc(-c2nc(-c3ccc(F)cc3)c(-c3ccncc3)[nH]2)cc1 (stereo unspecified)', 'residual activity', 112),
  ('CC(C)[C@H](CO)Nc1nc(Nc2cccc(Cl)c2)c2ncn(C(C)C)c2n1', 'residual activity', 102),
  ('COc1ccc2c(c[n+](C)c3c4cc5c(cc4ccc23)OCO5)c1OC', 'residual activity', 132),
  ('O=C1NC(=O)c2c1c1c3ccccc3n3c1c1c2c2ccccc2n1C1CCC3O1', 'residual activity', 90),
  ('CC(C)(C)c1cc(C=C(C#N)C#N)cc(Br)c1O', 'residual activity', 128);

====

biological target: Focal adhesion kinase 1 (Homo sapiens); details: at 10 µM
We begin with a simple list: items and their reported residual activity.
parameter: residual activity (%)

INSERT INTO assay_data (structure_string, value_measured) VALUES
  ('COc1cc2ncnc(Nc3ccc(OCc4ccccc4)cc3)c2cc1OC', 81),
  ('O=c1[nH]c2ccccc2n1C1CCN(Cc2ccc(-c3nc4cc5[nH]cnc5cc4nc3-c3ccccc3)cc2)CC1', 87),
  ('COc1ccc2c(c1)/C(=C/c1cnc[nH]1)C(=O)N2', 25),
  ('O=[N+]([O-])/C=C/c1ccc2c(c1)OCO2', 72),
  ('CC(C)(C)c1cc(C=C(C#N)C#N)cc(Br)c1O', 104),
  ('COc1ccc2c(c[n+](C)c3c4cc5c(cc4ccc23)OCO5)c1OC', 93),
  ('CC(C)[C@H](CO)Nc1nc(Nc2cccc(Cl)c2)c2ncn(C(C)C)c2n1', 13),
  ('CCn1cnc2c(Nc3cccc(Cl)c3)nc(N[C@@H]3CCCC[C@@H]3N)nc21', 12),
  ('COC(=O)[C@@]1(O)C[C@H]2O[C@]1(C)n1c3ccccc3c3c4c(c5c6ccccc6n2c5c31)C(=O)NC4', 5);
